substrate: C[C@H](NC(=O)CCC(=O)O)C(=O)N[C@@H](C)C(=O)N1CCC[C@H]1C(=O)N[C@@H](Cc1ccccc1)C(=O)Nc1ccc([N+](=O)[O-])cc1; test: Kinetic parameters from progress curves, p-nitroanilide substrates; format: biochemical, B. amyloliquefaciens; details: other: 25° C., 0.1M tris buffer, pH 8.6
Assay metric: kcat (s⁻¹)
Lab book: enter the figure in s⁻¹, no units written.

Challenge: Look at this protein and give its reported kcat. B. amyloliquefaciens subtilisin variant ala + 166 (A166, glycine+166 substituted) (Bacillus amyloliquefaciens; G273A) (protein, codons for the mature subtilisin corresponding to that secreted by the B. amyloliquefaciens; made in house; host or cells: Bacillus subtilis BG2036 (protease deficient)) AQSVPYGVSQIKAPALHSQGYTGSNVKVAVIDSGIDSSHPDLKVAGGASMVPSETNPFQDNNSHGTHVAGTVAALNNSIGVLGVAPSASLYAVKVLGADGSGQYSWIINGIEWAIANNMDVINMSLGGPSGSAALKAAVDKAVASGVVVVAAAGNEGTSGSSSTVAYPGKYPSVIAVGAVDSSNQRASFSSVGPELDVMAPGVSIQSTLPGNKYGAYNGTSMASPHVAGAAALILSKHPNWTNTQVRSSLENTTTKLGDSFYYGKGLINVQAAAQ
Response given: 19
